Origin of values: patent US20170233495A1

# tested_target: Cynomologus monkey (cyno) proMMP9 (Cynomologus monkey)
# test: cell-based or functional assay
reported_property: Efficacy, MMP3/MMP9 gelatin assay
Could you write the number and then its unit?

Would you please look over these solved cases?
F20-VH-GL1-V4-V9-V14/B03-VL-GL1c (antibody, human IgG4 S228P, V domains shown) VH: EVQLVESGGGLVQPGRSLRLSCAASGFTFNDYPMHWVRQAPGKGLEWVSGISSRSGSVGYAESVKGRFTISRDNAKNSLYLQMNSLRAEDTALYYCARDKIYYGSGSYDFYYYYGIDVWGQGTTVTVSS VL: SSELTQDPAVSVALGQTVRITCQGDSLRSYYASWYQQKPGQAPVVVIYGKNNRPSGIPDRFSGSSSGNTVSLTITGAQAEDEADYYCQSRDNIGNHRVVLFGGGTKLTVL    100%
F20-VH-GL1/B08-VL-GL6c (antibody, human IgG4, V domains shown) VH: EVQLVESGGGLVQPGRSLRLSCAASGFTFNDYPMHWVRQAPGKGLEWVSGISSNSGSVGYADSVKGRFTISRDNAKNSLYLQMNSLRAEDTALYYCARDKIYYGSGSYDFYYYYGMDVWGQGTTVTVSS VL: QSALTQPASVSGSPGQSITISCTGTSNDVGAYNRVSWYQQHPGKAPKLMIYGVSNRPSGVSNRFSGSKSGNTASLTISGLQAEDEADFYCTSYSSSTTSYVVFGGGTKVTVL    100%

Looking up F20-VH-GL1-V1-V9-V14/B08-VL-GL6c (antibody, human IgG4 S228P, V domains shown) VH: EVQLVESGGGLVQPGRSLRLSCAASGFTFNDYPMHWVRQAPGKGLEWVSGISSQSGSVGYAESVKGRFTISRDNAKNSLYLQMNSLRAEDTALYYCARDKIYYGSGSYDFYYYYGIDVWGQGTTVTVSS VL: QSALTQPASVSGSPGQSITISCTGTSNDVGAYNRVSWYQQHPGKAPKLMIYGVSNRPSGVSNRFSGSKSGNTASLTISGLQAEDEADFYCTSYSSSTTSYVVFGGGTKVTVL , I found its Efficacy, MMP3/MMP9 gelatin assay recorded as 100%
